- System: EKVX
- methodDescription: relative viability (nuclei count vs DMSO), 5 days (fraction); higher = more cells survive
- reportedConditions: first compound 0.253 µM
Returns: string. Value is YES if measured relative viability is below 0.4, and NO if it is greater than or equal to it.

Reference set, count: 4
compound	category
O=c1[nH]c2ccccc2n1C1CCN(CCCC(c2ccc(F)cc2)c2ccc(F)cc2)CC1 [Pimozide] + CS(=O)(=O)N1CCN(Cc2cc3nc(-c4cccc5[nH]ncc45)nc(N4CCOCC4)c3s2)CC1 [Pictilisib] (partner 1 µM)	YES
O=c1[nH]c2ccccc2n1C1CCN(CCCC(c2ccc(F)cc2)c2ccc(F)cc2)CC1 [Pimozide] + O=C(CCCCCCC(=O)Nc1ccccc1)NO [Vorinostat] (partner 1 µM)	NO
Cc1cnc(-c2cnc(NCCNc3ccc(C#N)cn3)nc2-c2ccc(Cl)cc2Cl)[nH]1 + Cc1cc(Nc2cc(N3CCN(C)CC3)nc(Sc3ccc(NC(=O)C4CC4)cc3)n2)n[nH]1 [Tozasertib] (partner 0.1 µM)	YES
Cc1cnc(-c2cnc(NCCNc3ccc(C#N)cn3)nc2-c2ccc(Cl)cc2Cl)[nH]1 + O=C(c1cc(Cc2n[nH]c(=O)c3ccccc23)ccc1F)N1CCN(C(=O)C2CC2)CC1 [Olaparib] (partner 8 µM)	NO

With those in mind, consider the next compound.
**Q:** Problem: For the compound Cc1cnc(-c2cnc(NCCNc3ccc(C#N)cn3)nc2-c2ccc(Cl)cc2Cl)[nH]1 + NC(=O)Nc1cc(-c2cccc(F)c2)sc1C(=O)N[C@H]1CCCNC1 [AZD7762] (partner 0.2 µM) , is relative viability under 0.4?
**A:** NO
